human cyclin E-CDK2 (Homo sapiens) IC50 data
endpoint name: IC50 (µM)

>  <chemical string>
Nc1nc(Nc2ccc(N3CCC(N4CCCCC4)CC3)cc2)sc1C(=O)c1ccc2c(c1)OCO2

>  <readout units>
µM

>  <value reported>
5.74

$$$$
>  <chemical string>
N#Cc1cccc(C(=O)c2sc(Nc3ccc(N4CCC(N5CCCC5)CC4)cc3)nc2N)c1

>  <readout units>
µM

>  <value reported>
2.05

$$$$
>  <chemical string>
COc1cccc(C(=O)c2sc(Nc3ccc(N4CCC(N5CCCC5)CC4)cc3)nc2N)c1

>  <readout units>
µM

>  <value reported>
3.49

$$$$
>  <chemical string>
N#Cc1cccc(C(=O)c2sc(Nc3ccc(N4CCC(N5CCOCC5)CC4)cc3)nc2N)c1

>  <readout units>
µM

>  <value reported>
2

$$$$
>  <chemical string>
Nc1nc(Nc2ccc(N3CCC(N4CCCC4)CC3)cc2)sc1C(=O)c1ccc(Cl)c(Cl)c1

>  <readout units>
µM

>  <value reported>
5.62

$$$$
>  <chemical string>
COc1cccc(C(=O)c2sc(Nc3ccc(N4CCC(N5CCOCC5)CC4)cc3)nc2N)c1

>  <readout units>
µM

>  <value reported>
4.8

$$$$
>  <chemical string>
CN(C)C1CCN(c2ccc(Nc3nc(N)c(C(=O)c4cccc(C#N)c4)s3)cc2)CC1

>  <readout units>
µM

>  <value reported>
3.91

$$$$
